Structures can show the parent of a compound that is named as a salt.
MEASURE_NAME: melting point

MOLECULE	MEASUREMENT
Cc1noc2cc3c(cc12)C1(CO3)C(=O)N(Cc2ccccc2C(F)(F)F)c2ccccc21 (stereo not shown)	192 to 194 °C
CCNC(=O)c1ccc(CN2C(=O)C3(COc4cc5c(cc43)CCO5)c3ccccc32)cc1 (stereo not shown)	190 to 191 °C
O=C1N(Cc2cncc(F)c2)c2ccccc2[C@]12COc1cc3c(cc12)OCCO3	197 to 200 °C
O=C1N(Cc2cccc(OCc3ccccc3)c2)c2ccccc2C12COc1cc3c(cc12)CCO3 (stereo not shown)	66 to 68 °C
COc1cc2c(cc1C)[C@@]1(CO2)C(=O)N(CN2CCN(C)CC2)c2ccccc21 (as salt: chloride)	> 200 °C (dec.)
COC(=O)c1ccc(CN2C(=O)C3(COc4cc5c(cc43)CCO5)c3ccccc32)cc1 (stereo not shown)	136 to 140 °C
Cc1cccc(NC(=O)c2ccccc2CN2C(=O)C3(COc4cc5c(cc43)CCO5)c3ccccc32)c1C (stereo not shown)	> 230 °C
O=C1N(C[C@H]2CCCO2)c2ccc(F)cc2C12COc1cc3c(cc12)CCO3 (stereo partly shown)	167 to 169 °C
O=C1N(C[C@H]2COCCO2)c2ccccc2[C@@]12COc1cc3c(cc12)OCCO3	207 to 209 °C
O=C1N(Cc2ccc(C(F)(F)F)o2)c2ccccc2C12COc1cc3c(cc12)OC(F)(F)O3 (stereo not shown)	59 to 60 °C
O=C1N(Cc2cc(F)ccn2)c2ccccc2C12COc1cc3c(cc12)OCCO3 (stereo not shown)	228 to 231 °C
CC(C)c1nc(CN2C(=O)C3(COc4cc5c(cc43)OCO5)c3ccccc32)no1 (stereo not shown)	196 to 199 °C
O=C1N(Cc2ccc(C(F)(F)F)o2)c2ccccc2[C@]12COc1cc3c(cc12)OCCO3	53 to 56 °C
CC(C)OCCCNC(=O)CN1C(=O)C2(COc3cc4c(cc32)CCO4)c2ccccc21 (stereo not shown)	149 to 151 °C
O=C1N(Cc2ccccn2)c2ccccc2C12COc1ccc3c(c12)OCCO3 (stereo not shown)	132 to 134 °C
Cl.O=C1N(CCCNCC(F)(F)F)c2ccccc2C12COc1cc3c(cc12)CCO3 (stereo not shown)	124 to 126 °C

----------
# MEASUREMENT_TARGET: CYP3A4 (Homo sapiens, UniProt P08684)
# Sequence (P08684 whole entry): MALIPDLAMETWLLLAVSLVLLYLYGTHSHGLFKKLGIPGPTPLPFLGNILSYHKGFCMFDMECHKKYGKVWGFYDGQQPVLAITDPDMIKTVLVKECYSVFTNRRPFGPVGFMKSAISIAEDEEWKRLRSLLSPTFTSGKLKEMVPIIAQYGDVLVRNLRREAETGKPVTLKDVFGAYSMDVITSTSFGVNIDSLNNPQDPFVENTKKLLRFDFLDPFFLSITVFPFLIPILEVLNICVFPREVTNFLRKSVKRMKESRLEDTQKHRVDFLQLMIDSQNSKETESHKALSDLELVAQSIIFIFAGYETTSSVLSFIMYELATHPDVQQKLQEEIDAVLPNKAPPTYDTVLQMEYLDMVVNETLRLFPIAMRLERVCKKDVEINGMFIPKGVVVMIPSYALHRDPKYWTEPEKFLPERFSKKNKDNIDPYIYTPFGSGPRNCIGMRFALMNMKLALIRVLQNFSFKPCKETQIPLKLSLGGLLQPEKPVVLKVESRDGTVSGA
# ASSAY_SUMMARY: Cytochrome P450 (CYP450) Inhibition Assay, CYP3A4 (Vivid fluorescence, BOMCC substrate)
# CONDITIONS: human, P450 Baculosomes (recombinant CYP3A4), probe BOMCC (Vivid substrate)
Structures can show the parent of a compound that is named as a salt.

COMPOUND	inhibition at 10 µM
Cc1noc2cc3c(cc12)C1(CO3)C(=O)N(Cc2ccc(-c3cc(N)n[nH]3)cc2)c2ccccc21 (centres unmarked) [Example 29.1, hydrochloride]	> 50%
O=C1N(Cc2ncccc2F)c2ccccc2[C@]12COc1cc3c(cc12)OCCO3 [Example 4.108]	< 50%
CN1C(=O)[C@]2(COc3cc4c(cc32)OCO4)c2c(Br)cccc21 [Example 16.64]	> 50%
Cn1cc(CN2C(=O)C3(COc4cc5c(cc43)OCCO5)c3ccccc32)ccc1=O (centres unmarked) [Example 36]	< 50%
COc1cc2c(cc1C#N)C1(CO2)C(=O)Nc2ccccc21 (centres unmarked) [Example 3.29]	< 50%
COc1ccc(CN2C(=O)C3(COc4cc5c(cc43)OCCO5)c3ccccc32)cn1 (centres unmarked) [Example 5.15]	< 50%
O=C1N(Cc2ccc(C(F)(F)F)o2)c2ccccc2[C@]12COc1cc3c(cc12)CCO3 [Example 5.7]	> 50%
O=C1N(C[C@H]2CCCO2)c2cccc(-c3cncnc3)c2C12COc1cc3c(cc12)CCO3 (some centres unmarked) [Example 16.10]	> 50%
CCC(=O)CN1C(=O)[C@@]2(COc3cc4c(cc32)OCCO4)c2ccccc21 [Example 4.109]	< 50%
O=C(O)c1ccccc1CN1C(=O)C2(COc3cc4c(cc32)CCO4)c2ccccc21 (centres unmarked) [Example 11.30]	< 50%
Cc1noc2cc3c(cc12)C1(CO3)C(=O)N(Cc2ccc(-c3ccno3)cc2)c2ccccc21 (centres unmarked) [Example 4.99]	< 50%
O=C(Nc1cccc(Cl)c1)c1ccccc1CN1C(=O)C2(COc3cc4c(cc32)CCO4)c2ccccc21 (centres unmarked) [Example 12.13]	> 50%
COc1cc2c(cc1C)[C@@]1(CO2)C(=O)N(CN2CCN(C)CC2)c2ccccc21 [Example 11.64]	< 50%
O=C1N(CC2CC2(F)F)c2ccccc2C12COc1cc3c(cc12)OCCO3 (centres unmarked) [Example 5.21]	< 50%
O=C1Nc2ccccc2C12COc1cc3c(cc12)OCCO3 (centres unmarked) [Example 3.10]	< 50%
O=C1N(Cc2nnc(C(F)(F)F)o2)c2ccccc2C12COc1cc3c(cc12)OCCO3 (centres unmarked) [Example 11.92]	< 50%
CCN(CC)C(=O)CN1C(=O)C2(COc3cc4c(cc32)CCO4)c2ccccc21 (centres unmarked) [Example 12.48]	< 50%
